TGI: recorded values
System: HL-60(TB) leukemia
experiment description: NCI tumour cell line growth inhibition, 48 h
observable: TGI

{"compound": "N#Cc1ccc(Oc2nccc(-c3c(-c4ccc(F)cc4)ncn3C3CCNCC3)n2)cc1", "observable": "TGI", "result": "> 25 µM"}
{"compound": "CC(C)=CC/C=C(/C)[C@H]1CC[C@]2(C)[C@@H]1CC[C@@H]1[C@@]3(C)CCC(=O)NC(C)(C)[C@@H]3CC[C@]12C", "observable": "TGI", "result": "49.3 µM"}
{"compound": "CC1=CC(c2ccccc2)OP1(=O)c1ccccc1 (centres undefined)", "observable": "TGI", "result": "> 100 µM"}
{"compound": "CCc1cccc(C(C)CC)c1N=C(NC(=O)c1ccccc1C(=O)NC(=Nc1c(CC)cccc1C(C)CC)SC)SC (centres undefined)", "observable": "TGI", "result": "51.5 µM"}
{"compound": "COC(=O)N1CC[C@@H]2CCC=C(c3cccc4c3OCO4)[C@@H]21", "observable": "TGI", "result": "> 100 µM"}
{"compound": "CC1=NN(c2nc(N)nc(CS(C)(=O)=O)n2)C(C)(C)C1", "observable": "TGI", "result": "> 100 µM"}
{"compound": "CCOC(=O)/C(C(=S)NC)=C(/N)N1CCCC1", "observable": "TGI", "result": "> 100 µM"}
{"compound": "C=C1C(=O)OC2CCCCC3OC3C12 (centres undefined)", "observable": "TGI", "result": "9.72 µM"}
{"compound": "CN(C)c1nc(N(C)C)nc(N(C)CN(C)c2ccccc2)n1", "observable": "TGI", "result": "> 100 µM"}
{"compound": "CC(=O)OCC1C(C(C)OC(C)=O)CCC2C1CCC1(C)C(OC(C)=O)CCC21 (centres undefined)", "observable": "TGI", "result": "52.6 µM"}
{"compound": "CSC1=N/C(=C\\c2cccs2)C(=O)N1CN1CCOCC1", "observable": "TGI", "result": "> 100 µM"}
{"compound": "CS(C)(=O)=N/C=C\\C(=O)C(Cl)(Cl)Cl", "observable": "TGI", "result": "> 100 µM"}
{"compound": "CCOC(=O)CC(=O)ON(C)C(=O)Cc1ccccc1", "observable": "TGI", "result": "> 100 µM"}
{"compound": "Cc1c2ccccc2c(C)c2c3c(ccc12)C(=O)C=CC3=O", "observable": "TGI", "result": "5.3 µM"}
{"compound": "CCN(CC)CCNc1ccc([N+](=O)[O-])c2nc3ccccc3c(N)c12", "observable": "TGI", "result": "2.11 µM"}
{"compound": "CC1C2Cc3ccc(O)cc3C1(C)CCN2C (centres undefined)", "observable": "TGI", "result": "> 100 µM"}
{"compound": "COC1/C=C\\C=C(/C)C(=O)NC2=CC(=O)C=C(C2=O)C(OC)C(C)CC(OC)C(OC)C(C)/C=C(/C)C1OC(N)=O (centres undefined)", "observable": "TGI", "result": "0.554 µM"}
{"compound": "C=CCCCCOC1C=CC(OC(C)=O)C(COC(C)=O)O1 (centres undefined)", "observable": "TGI", "result": "> 100 µM"}
{"compound": "CC1=C(C)C(=O)OC(C(C)(O)C2(O)CCC3(O)C4CC(Cl)C5(O)C(O)C=CC(=O)C5(C)C4CCC32C)C1 (centres undefined)", "observable": "TGI", "result": "9.04 µM"}
{"compound": "COc1ccc(C2CCc3nc4nc(N)nc(N)c4cc3C2)cc1 (centres undefined)", "observable": "TGI", "result": "> 100 µM"}
{"compound": "COc1ccc(/C=C/C(=O)c2sc(N)nc2C)cc1", "observable": "TGI", "result": "> 100 µM"}
{"compound": "CSC1=Nc2c(c(C)c(-c3ccccc3)n2COC(CO)CO)C2=NC(=O)C(C)N12 (centres undefined)", "observable": "TGI", "result": "> 100 µM"}
{"compound": "OC(c1ccccc1)(c1ccccc1)c1ccccn1", "observable": "TGI", "result": "> 100 µM"}
{"compound": "COC(=O)CCC(NC(=S)N/N=C(\\C)c1ccccn1)C(=O)OC (centres undefined)", "observable": "TGI", "result": "53.1 µM"}
{"compound": "CC(C)(C)OC(=O)N1C(C2=COc3ccccc3O2)=COc2ccccc21", "observable": "TGI", "result": "45.5 µM"}
{"compound": "Nc1nnc2nc(CC(=O)/C=C/c3ccccc3)c(=O)[nH]n12", "observable": "TGI", "result": "> 100 µM"}
{"compound": "COc1ccc2c(=O)c([Se]c3coc4cc(OC)ccc4c3=O)coc2c1", "observable": "TGI", "result": "> 100 µM"}
{"compound": "O=C1Cc2cc(CCn3ccnc3)c(Cl)cc2N1", "observable": "TGI", "result": "> 100 µM"}
{"compound": "CCCCc1ccc(Nc2nc3c(ncn3C3OC(COC(C)=O)C(OC(C)=O)C3OC(C)=O)c(=O)[nH]2)cc1 (centres undefined)", "observable": "TGI", "result": "55.6 µM"}
{"compound": "C=CCN1CCC(OC(=O)C(O)(/C=C\\CC)C2CCCC2)CC1 (centres undefined)", "observable": "TGI", "result": "> 100 µM"}
{"compound": "COc1cccc(Nc2nc(NNC(=O)Cc3ccccc3)nc(NNC(=O)c3ccncc3)n2)c1", "observable": "TGI", "result": "> 100 µM"}
{"compound": "COC(=O)[C@]12CC[C@@H](C)[C@H](C)[C@@H]1C1=CC[C@@H]3[C@@]4(C)C[C@@H](OC(=O)c5ccco5)[C@H](O)[C@@](C)(CO)[C@@H]4[C@H](O)C[C@@]3(C)[C@]1(C)CC2", "observable": "TGI", "result": "5.46 µM"}
{"compound": "Cn1c(-c2ccccc2)cc(-c2ccc3c(c2)OCO3)c1-c1cccs1", "observable": "TGI", "result": "> 100 µM"}
{"compound": "N/C(=N\\O)c1ncc(-c2ccc(C(F)(F)F)cc2)c(NC2CCCCCC2)n1", "observable": "TGI", "result": "5.52 µM"}

Attribution: PubChem BioAssay (NCI)
